Test system: 695427-040-R-J1-PDC complex spheroid viability;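 note: viability read after seven days of drug exposure; 100% = DMSO vehicle control viability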
Test method notes: Anticancer human tumor 695427-040-R-J1-PDC patient-derived colon adenocarcinoma cell line growth inhibition [RAS]
Condition info: second compound 0.1 µM; first compound 0.03 µM; hits give low values
Recorded viability, T/C by entry

{"columns": ["Molecule", "viability, T/C [%]"],
 "data": [
  ["CCc1c2c(nc3ccc(O)cc13)-c1cc3c(c(=O)n1C2)COC(=O)[C@]3(O)CC + C#Cc1c(F)ccc2cc(O)cc(-c3ncc4c(N5CC6CCC(C5)N6)nc(OCC56CCCN5CC(F)C6)nc4c3F)c12", 72.2],
  ["CC1(C)CCC(Nc2ncc(C(F)(F)F)c(-c3c[nH]c4c(P(C)(C)=O)c(C#N)ccc34)n2)CN1 (centres undefined) + C#Cc1c(F)ccc2cc(O)cc(-c3ncc4c(N5CC6CCC(C5)N6)nc(OCC56CCCN5CC(F)C6)nc4c3F)c12", 88.6],
  ["CC1(C)CCC(Nc2ncc(C(F)(F)F)c(-c3c[nH]c4c(P(C)(C)=O)c(C#N)ccc34)n2)CN1 (centres undefined) + C=CC(=O)N1CCN(c2nc(OCC3CCCN3C)nc3c(F)c(-c4nc(N)cc(C)c4C(F)(F)F)c(Cl)cc23)C(C)C1", 84.7],
  ["CCc1c2c(nc3ccc(O)cc13)-c1cc3c(c(=O)n1C2)COC(=O)[C@]3(O)CC + C=CC(=O)N1CCN(c2nc(OCC3CCCN3C)nc3c(F)c(-c4nc(N)cc(C)c4C(F)(F)F)c(Cl)cc23)C(C)C1", 68.9]
]}

FYI, the data here is from PubChem BioAssay AID2060888.
